Molecular target: T1, CRBN, Q96SW2;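 note: pooled lentiviral library of zinc finger degron-EGFP fusions in mCherry-positive Jurkat cells, FACS-sorted after compound exposure, with degron abundance counted by next-generation sequencing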
T1 chain: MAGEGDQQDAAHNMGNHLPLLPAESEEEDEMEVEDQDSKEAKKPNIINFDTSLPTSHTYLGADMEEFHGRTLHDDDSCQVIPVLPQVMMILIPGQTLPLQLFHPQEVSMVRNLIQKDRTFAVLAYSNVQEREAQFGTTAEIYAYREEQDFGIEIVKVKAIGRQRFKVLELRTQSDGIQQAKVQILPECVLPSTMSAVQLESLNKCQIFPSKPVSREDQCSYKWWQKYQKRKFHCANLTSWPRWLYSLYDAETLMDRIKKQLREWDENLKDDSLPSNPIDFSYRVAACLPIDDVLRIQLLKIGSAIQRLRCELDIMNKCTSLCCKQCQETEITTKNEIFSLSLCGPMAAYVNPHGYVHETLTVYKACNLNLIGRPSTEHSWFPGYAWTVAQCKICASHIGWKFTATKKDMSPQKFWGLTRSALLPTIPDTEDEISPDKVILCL
Assay: log2 fold change of degron read counts, EGFP-low vs EGFP+ sorted cells (limma voom), compound-induced degradation; higher = more compound-induced degradation of the degron-EGFP fusion; degrons are variants of IKZF1/3 zinc finger 2; compound dose not given here
Settings: Jurkat; 18 h; compound: compound 19 (5-tert-butyl-thalidomide)
The full ranking holds about 8,300 sequences; the median of “log2 fold change of degron read counts, EGFP-low vs EGFP+ sorted cells (limma voom), compound-induced degradation” is about -1.1, and the highest 2% start at about 3.2. The sample holds the highest values, similar sequences and a random draw of the others, so the mix is not that of the screen.
measured_property: log2 fold change of degron read counts
Give bare numbers.

// worked examples, log2 fold change of degron read counts included
| item_sequence | log2 fold change of degron read counts |
| --- | --- |
| FCCEICGASFTQKGNLLRHIKL [46F_47C_49E_50I_52G_53A_54S_55F_67L_, Q9UKT9] | 3.35 |
| LNCPICGFACTQKGNLLRHIKL [46L_47N_49P_50I_52G_53F_54A_55C_67L_, Q9UKT9] | 2.3 |
| FSCEICGASFTQKGNLLRHIKL [46F_47S_49E_50I_52G_53A_54S_55F_67L_, Q9UKT9] | 3.56 |
| FQCEICGASFTQKGNLLRHIKL [46F_47Q_49E_50I_52G_53A_54S_55F_67L_, Q9UKT9] | 2.5 |

Field: log2 fold change of degron read counts. Fill in for each record below.
1. LSCPICGFACTQKGNLLRHIKL [46L_47S_49P_50I_52G_53F_54A_55C_67L_, Q9UKT9]
2. FDCEICGASFTQKGNLLRHIKL [46F_47D_49E_50I_52G_53A_54S_55F_67L_, Q9UKT9]
3. FGCEICGASFTQKGNLLRHIKL [46F_47G_49E_50I_52G_53A_54S_55F_67L_, Q9UKT9]

Outgoing:
[2.81, 3.18, 3.07]
